meta.source: ChEMBL document CHEMBL4406880

- Test system: UACC-257
- EXPERIMENT_DESCRIPTION: Growth inhibition of human UACC257 cells assessed as growth percentage at 10 uM incubated for 48 hrs by sulforhodamine B assay relative to control
- Format: functional
- RECORDED_CONDITIONS: UACC-257, 48 h, read-out: Activity
Quick reference for growth at 10 µM among some compounds
Quick reminder: number only, in %, skip the unit.

Some compounds with recorded growth at 10 µM:
Query string: Request the reported growth at 10 µM associated with CC1=C(C(=O)OCc2ccccc2)C(c2ccc3c(c2)OCO3)NC(=S)N1 (racemic)
Result string: 96.7

Query string: Same again, this time with CC1=C(C(=O)OC(C)C)C(c2ccc3c(c2)OCO3)NC(=O)N1 (racemic)
Result string: 104

Query string: Same again, this time with CC(=O)N1C(=S)NC(C)=C(C(=O)OC(C)C)C1c1ccc2c(c1)OCO2 (racemic)
Result string: 104

Query string: Same again, this time with O=C1NC2=C(C(=O)c3ccccc32)C(c2ccc3c(c2)OCO3)N1 (racemic)
Result string: 100

More entries:
Query string: Request the reported growth at 10 µM associated with CC1=C(C(=O)OCC(C)C)C(c2ccc3c(c2)OCO3)NC(=S)N1 (racemic)
Result string: 95.6

* * *

Quick reference for growth at 10 µM among some compounds
- System: NCI-H522
- EXPERIMENT_DESCRIPTION: Growth inhibition of human NCI-H522 cells assessed as growth percentage at 10 uM incubated for 48 hrs by sulforhodamine B assay relative to control
- Assay type: functional
- RECORDED_CONDITIONS: NCI-H522, 48 h, read-out: Activity
Give the figure together with its unit, number first.

Query string: Request the reported growth at 10 µM associated with COCCOC(=O)C1=C(C)NC(=S)N(C(C)=O)C1c1ccc2c(c1)OCO2 (racemic)
Result string: 91.6%

Query string: Same again, this time with CC1=C(C(=O)OCC(C)C)C(c2ccc3c(c2)OCO3)NC(=O)N1 (racemic)
Result string: 91.1%

Query string: Same again, this time with COCCOC(=O)C1=C(C)NC(=O)NC1c1ccc2c(c1)OCO2 (racemic)
Result string: 91.8%

More entries:
Query string: Request the reported growth at 10 µM associated with CC1=C(C(=O)OCc2ccccc2)C(c2ccc3c(c2)OCO3)NC(=O)N1 (racemic)
Result string: 87.7%

Query string: Same again, this time with CC1=C(C(=O)c2ccccc2)C(c2ccc3c(c2)OCO3)NC(=O)N1 (racemic)
Result string: 90.3%

Query string: Same again, this time with CC(=O)N1C(=S)NC(C)=C(C(=O)OCc2ccccc2)C1c1ccc2c(c1)OCO2 (racemic)
Result string: 75.7%

Query string: Same again, this time with CC(=O)C1=C(C)NC(=O)NC1c1ccc2c(c1)OCO2 (racemic)
Result string: 91.1%

Query string: Same again, this time with CC1=C(C(=O)OCC(C)C)C(c2ccc3c(c2)OCO3)NC(=S)N1 (racemic)
Result string: 82.2%

Query string: Same again, this time with CC1=C(C(=O)OCc2ccccc2)C(c2ccc3c(c2)OCO3)NC(=S)N1 (racemic)
Result string: 89.5%

* * *

- EXPERIMENT_DESCRIPTION: Inhibition of kinesin (unknown origin) assessed as reduction in ATPase activity using microtubule as substrate measured for 5 to mins
- Design: species or system Homo sapiens
Define the label as Yes when IC50 is strictly less than 10 µM and as No in all remaining cases.

Take a look at these entries with their results.
Query string: Threshold test, IC50 < 10 µM: CC1=C(C(=O)c2ccccc2)C(c2cccc(O)c2)NC(=S)N1C (configuration not stated)
Result string: Yes

Query string: Same again, this time with CCOC(=O)C1=C(C)NC(=S)NC1c1cccc(O)c1 (configuration not stated) [MONASTROL]
Result string: No

Query string: Same again, this time with CC1=C(C(=O)c2ccccc2)C(c2ccc3c(c2)OCO3)NC(=S)N1 (racemic)
Result string: No

More entries:
Query string: Threshold test, IC50 < 10 µM: CC1(C)CC(=O)C2=C(C1)NC(=O)NC2c1ccc2c(c1)OCO2 (racemic)
Result string: Yes

Query string: Same again, this time with CC1=C(C(=O)OCc2ccccc2)C(c2ccc3c(c2)OCO3)n2c(nc3ccccc32)N1 (racemic)
Result string: Yes

Query string: Same again, this time with CC(=O)N1C(=S)NC(C)=C(C(=O)OCc2ccccc2)C1c1ccc2c(c1)OCO2 (racemic)
Result string: Yes

Query string: Same again, this time with CC(=O)C1=C(C)Nc2nc3ccccc3n2C1c1ccc2c(c1)OCO2 (racemic)
Result string: No

* * *

Quick reference for growth at 10 µM among some compounds
- System: NCI/ADR-RES
- EXPERIMENT_DESCRIPTION: Growth inhibition of human NCI/ADR-RES cells assessed as growth percentage at 10 uM incubated for 48 hrs by sulforhodamine B assay relative to control
- Format: functional
- RECORDED_CONDITIONS: read-out: Activity
Quick reminder: number only, in %, skip the unit.

Some compounds with recorded growth at 10 µM:
Query string: Request the reported growth at 10 µM associated with O=C1NC2=C(C(=O)c3ccccc32)C(c2ccc3c(c2)OCO3)N1 (racemic)
Result string: 109

Query string: Same again, this time with CC1=C(C(=O)OC(C)C)C(c2ccc3c(c2)OCO3)NC(=O)N1 (racemic)
Result string: 105

Query string: Same again, this time with COCCOC(=O)C1=C(C)NC(=O)NC1c1ccc2c(c1)OCO2 (racemic)
Result string: 104

Query string: Same again, this time with CC(=O)N1C(=S)NC(C)=C(C(=O)OC(C)C)C1c1ccc2c(c1)OCO2 (racemic)
Result string: 103

Query string: Same again, this time with CC1(C)CC(=O)C2=C(C1)NC(=O)NC2c1ccc2c(c1)OCO2 (racemic)
Result string: 104

More entries:
Query string: Request the reported growth at 10 µM associated with O=C1C2=C(NC(=S)NC2c2ccc3c(c2)OCO3)c2ccccc21 (racemic)
Result string: 103

Query string: Same again, this time with CC1=C(C(=O)OCc2ccccc2)C(c2ccc3c(c2)OCO3)NC(=S)N1 (racemic)
Result string: 105

Query string: Same again, this time with COCCOC(=O)C1=C(C)NC(=S)NC1c1ccc2c(c1)OCO2 (racemic)
Result string: 103

Query string: Same again, this time with CC1=C(C(=O)c2ccccc2)C(c2ccc3c(c2)OCO3)NC(=O)N1 (racemic)
Result string: 103

Query string: Same again, this time with CC1=C(C(=O)OC(C)C)C(c2ccc3c(c2)OCO3)NC(=S)N1 (racemic)
Result string: 101

Query string: Same again, this time with CC(=O)N1C(=S)NC(C)=C(C(=O)OCc2ccccc2)C1c1ccc2c(c1)OCO2 (racemic)
Result string: 95.3

Query string: Same again, this time with CC1=C(C(=O)OCc2ccccc2)C(c2ccc3c(c2)OCO3)NC(=O)N1 (racemic)
Result string: 97.7

Query string: Same again, this time with CC(=O)C1=C(C)Nc2nc3ccccc3n2C1c1ccc2c(c1)OCO2 (racemic)
Result string: 102

Query string: Same again, this time with CC1=C(C(=O)c2ccccc2)C(c2ccc3c(c2)OCO3)NC(=S)N1 (racemic)
Result string: 43.3

Query string: Same again, this time with COCCOC(=O)C1=C(C)NC(=S)N(C(C)=O)C1c1ccc2c(c1)OCO2 (racemic)
Result string: 99.8

* * *

- System: U-251
- EXPERIMENT_DESCRIPTION: Growth inhibition of human U251 cells assessed as growth percentage at 10 uM incubated for 48 hrs by sulforhodamine B assay relative to control
- Type: functional
- RECORDED_CONDITIONS: U-251, 48 h, read-out: Activity
QUANTITY: growth at 10 µM (%)
Quick reminder: number only, in %, skip the unit.

Some molecules with recorded growth at 10 µM:
Query string: Request the reported growth at 10 µM associated with COCCOC(=O)C1=C(C)NC(=S)NC1c1ccc2c(c1)OCO2 (racemic)
Result string: 104

Query string: Same again, this time with CC1=C(C(=O)c2ccccc2)C(c2ccc3c(c2)OCO3)NC(=S)N1 (racemic)
Result string: 37.5

Query string: Same again, this time with CC1=C(C(=O)OC(C)C)C(c2ccc3c(c2)OCO3)NC(=S)N1 (racemic)
Result string: 102

Query string: Same again, this time with CC1=C(C(=O)c2ccccc2)C(c2ccc3c(c2)OCO3)NC(=O)N1 (racemic)
Result string: 96.5

Query string: Same again, this time with CC1=C(C(=O)OCC(C)C)C(c2ccc3c(c2)OCO3)NC(=S)N1 (racemic)
Result string: 97.4

More entries:
Query string: Request the reported growth at 10 µM associated with CC(=O)C1=C(C)NC(=S)NC1c1ccc2c(c1)OCO2 (racemic)
Result string: 98.2

Query string: Same again, this time with COCCOC(=O)C1=C(C)NC(=S)N(C(C)=O)C1c1ccc2c(c1)OCO2 (racemic)
Result string: 94.8

Query string: Same again, this time with CC1=C(C(=O)OCC(C)C)C(c2ccc3c(c2)OCO3)NC(=O)N1 (racemic)
Result string: 99.8

Query string: Same again, this time with CC(=O)C1=C(C)Nc2nc3ccccc3n2C1c1ccc2c(c1)OCO2 (racemic)
Result string: 95.7
